assay: chemical genetic growth profiling, strain panel (AID 1159580);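 note: tested at 20 µM; growth read once vehicle control cultures reached saturation at 30 °C; 1 = growth at the plate median or of vehicle wells; lower values mean less growth of the strain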; settings: S. cerevisiae deletion strains, growth OD, locus YKL190W, strain CNB1, active compounds read low
Screen size: about 5,500 compounds; about 2,000 (36%) were called active. Another 18% or so got no clear call; they are omitted. The list shows a part of the results.
endpoint label: normalized growth

- compound: "CN1CCCCC1c1ccc(-c2cccnc2)nc1 (stereo not given)"
  endpoint label: "normalized growth"
  measured: 1.02
- compound: "N#Cc1cc(I)c(C#N)c(I)c1"
  endpoint label: "normalized growth"
  measured: 0.973
- compound: "CC(=O)CCCCn1c(=O)c2c(ncn2C)n(C)c1=O"
  endpoint label: "normalized growth"
  measured: 1.02
- compound: "N[C@@H](C(=O)N[C@@H]1C(=O)N2C(C(=O)O)=C(Cl)CS[C@H]12)c1ccccc1"
  endpoint label: "normalized growth"
  measured: 1.01
- compound: "CC(=O)OC1CCC2(O)CC1(C)CCC1C2CC1(C)C (stereo not given)"
  endpoint label: "normalized growth"
  measured: 0.981
- compound: "O=C(NNC(=O)c1ccc[nH]1)Nc1cc(Cl)cc(Cl)c1"
  endpoint label: "normalized growth"
  measured: 1.01
- compound: "O=C(O)c1cccnc1C(=O)O"
  endpoint label: "normalized growth"
  measured: 1.01
- compound: "O=C(CSCc1c(Cl)cccc1Cl)NNC(=S)NC1CC2C=CC1C2 (stereo not given)"
  endpoint label: "normalized growth"
  measured: 0.762
- compound: "Cn1cnc2c1c(=O)[nH]c(=O)n2C"
  endpoint label: "normalized growth"
  measured: 1.01
- compound: "COC(=O)C[C@H]1C(C)(C)[C@H](O)[C@@H]2CC3=C4CC(O)O[C@@H](c5ccoc5)[C@]4(C)CCC3[C@@]1(C)C2=O (stereo not given in full)"
  endpoint label: "normalized growth"
  measured: 0.98
- compound: "CCCC(=O)Nc1ccc(OCC(O)CNC(C)C)c(C(C)=O)c1 (stereo not given)"
  endpoint label: "normalized growth"
  measured: 1.01
- compound: "COC(=O)c1cc(OC)c(OC)cc1NC(=O)Nc1cc(Cl)cc(Cl)c1"
  endpoint label: "normalized growth"
  measured: 1.01
- compound: "CC(C)OC(=O)Nc1cccc(Cl)c1"
  endpoint label: "normalized growth"
  measured: 0.98
- compound: "Cc1ccc(NC(=S)C(C#N)C(=O)N2CCCC2)c(C)c1 (stereo not given)"
  endpoint label: "normalized growth"
  measured: 1.01
- compound: "O=C1CSC(c2cccnc2)N1c1ccc(C2CCCCC2)cc1 (stereo not given)"
  endpoint label: "normalized growth"
  measured: 0.945
- compound: "Cc1cc2c(cc1C)CSC(C)(c1ccc(F)cc1)SC2"
  endpoint label: "normalized growth"
  measured: 0.992
- compound: "CCOC(=O)c1ccc(NC(=S)N2CCOCC2)cc1"
  endpoint label: "normalized growth"
  measured: 1.01
- compound: "CC(NC(C)(C)C)C(=O)c1cccc(Cl)c1 (stereo not given)"
  endpoint label: "normalized growth"
  measured: 1.01
- compound: "N/C(=N/O)c1cnccc1C(F)(F)F"
  endpoint label: "normalized growth"
  measured: 0.997
- compound: "O=C1CSC(c2cccnc2)N1c1ccc(Cl)cc1 (stereo not given)"
  endpoint label: "normalized growth"
  measured: 0.997
- compound: "Cn1c(=O)c2c(ncn2CCO)n(C)c1=O"
  endpoint label: "normalized growth"
  measured: 1
- compound: "CNC(=O)Oc1cccc2c1OC(C)(C)C2"
  endpoint label: "normalized growth"
  measured: 1.02
- compound: "Nc1ccc(Sc2cc(Cl)ccc2Cl)nc1"
  endpoint label: "normalized growth"
  measured: 0.762
- compound: "O=C(Nc1cc(-c2ccccc2)[nH]n1)c1ccccc1"
  endpoint label: "normalized growth"
  measured: 0.89
- compound: "CC(=O)OCCCCN1C(=O)c2ccccc2C1=O"
  endpoint label: "normalized growth"
  measured: 0.999
- compound: "CNC(=O)Oc1ccccc1OC(C)C"
  endpoint label: "normalized growth"
  measured: 1.01
- compound: "C/C(=C\\CO)CC[C@H](C)CCC[C@H](C)CCCC(C)C"
  endpoint label: "normalized growth"
  measured: 1.05
- compound: "O=C1c2cccc(O)c2C(=O)c2c(O)cccc21"
  endpoint label: "normalized growth"
  measured: 0.697
- compound: "N#CCC(=O)N(Cc1ccccc1F)C(=O)NC1CCCCC1"
  endpoint label: "normalized growth"
  measured: 1
- compound: "Cn1c(=O)c2c(ncn2CCCl)n(C)c1=O"
  endpoint label: "normalized growth"
  measured: 1
- compound: "Cc1cccc(NC(=O)c2ccccc2)c1"
  endpoint label: "normalized growth"
  measured: 0.988
- compound: "NC(=O)C1=C(O)C(=O)N(C2CCCCC2)C1"
  endpoint label: "normalized growth"
  measured: 1.01
- compound: "O=c1c(O)c(-c2ccccc2)oc2cc(O)ccc12"
  endpoint label: "normalized growth"
  measured: 0.4
- compound: "Oc1cccc2cccnc12"
  endpoint label: "normalized growth"
  measured: 0.0517
- compound: "O=C1C(=O)c2ccccc2C(O)=C1C1CCC(c2ccc(Cl)cc2)CC1 (stereo not given)"
  endpoint label: "normalized growth"
  measured: 0.99
- compound: "CC(C)=CCC/C(C)=C/CO"
  endpoint label: "normalized growth"
  measured: 1.01
- compound: "CN1CCC[C@H]1c1cccnc1"
  endpoint label: "normalized growth"
  measured: 1
- compound: "CC(C)(C)S(=O)(=O)c1cnc(N)nc1N"
  endpoint label: "normalized growth"
  measured: 1
- compound: "CC(C)N=C(N)N=C(N)Nc1ccc(Cl)cc1"
  endpoint label: "normalized growth"
  measured: 1.01
- compound: "Cn1c(=O)[nH]c2ncn(C)c2c1=O"
  endpoint label: "normalized growth"
  measured: 1.01
